# credit: PubChem BioAssay AID2842

- Tested on: M. tuberculosis H37Rv growth inhibition
- experimental_protocol: Mycobacterium tuberculosis H37Rv growth inhibition, putative kinase inhibitor library, confirmatory dose response (AID 2842);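 note: bacteria incubated one week before Alamar blue readout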
reported_endpoint: IC90

Known results for molecules:
NC(=O)c1c(NC(=O)c2ccc([N+](=O)[O-])s2)sc2c1CCN(Cc1ccccc1)C2 : 0.46 µg/mL
COc1ccc(NC(=O)CCCN2C(=O)/C(=C\c3ccco3)SC2=S)cc1 : 3.3 µg/mL
O=C1C(Cl)=C(Nc2ccccc2O)C(=O)N1c1ccccc1 : 3.29 µg/mL
CCC(=O)Nc1nnc(-c2ccc(Br)cc2)o1 : 6.26 µg/mL

Exam item: Look up M. tuberculosis H37Rv growth inhibition data: IC90 of "Fc1cccc2sc(Nc3nc(-c4ccccn4)cs3)nc12" , then report it.
Marked response: < 0.2 µg/mL

Exam item: Look up M. tuberculosis H37Rv growth inhibition data: IC90 of "O=C(Nc1nnc(-c2cc(Cl)ccc2Cl)o1)c1ccc2c(c1)CCCC2" , then report it.
Marked response: 25.8 µg/mL

Exam item: Look up M. tuberculosis H37Rv growth inhibition data: IC90 of "CCOc1cccc2sc(N3CCc4ccccc4C3)nc12" , then report it.
Marked response: 15.3 µg/mL

* * *

- Test system: M. tuberculosis H37Rv growth inhibition
- experimental_protocol: Mycobacterium tuberculosis H37Rv growth inhibition, putative kinase inhibitor library, confirmatory dose response (AID 2842);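 note: bacteria incubated one week before Alamar blue readout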
Known IC90 of a selection of compounds

Known results for compounds:
O=C(c1ccco1)N(CCCn1ccnc1)c1nc2ccc(Br)cc2s1 : 0.74 µg/mL
CSc1nnc(C)c(=O)n1COC(=O)c1ccc2ccccc2c1 : 3.38 µg/mL
N#CC1=C(N)OC2=C(C(=O)CC(c3ccccc3)C2)C1C1CCCCC1 (stereo unspecified) : 7.8 µg/mL
Cc1cc(NS(=O)(=O)c2ccc(NC(=O)CCCOc3ccc(Cl)cc3)cc2)no1 : 19.1 µg/mL
COc1ccccc1-c1nnc(Nc2nc3c(F)cccc3s2)o1 : 3.16 µg/mL

Exam item: Provide only the value of recorded IC90 for "Cc1cc(NC2CCCC2)n2ncc(-c3ccccc3)c2n1"
Marked response: 9.88 µg/mL

Exam item: Provide only the value of recorded IC90 for "Cc1ccc(C)c(-c2nnc(NC(=O)c3ccc(S(=O)(=O)N(C)C4CCCCC4)cc3)o2)c1"
Marked response: 58.3 µg/mL

Exam item: Provide only the value of recorded IC90 for "O=C(Nc1nnc(-c2ccc(Br)cc2)o1)c1ccc(Cl)s1"
Marked response: 1.87 µg/mL

Exam item: Provide only the value of recorded IC90 for "Nc1c(C(=O)Nc2ccc(Br)cc2)sc2nc3c(c(-c4cccs4)c12)CCCC3"
Marked response: 5.12 µg/mL

Exam item: Provide only the value of recorded IC90 for "Cc1ccc2cc(CCNC(=S)NCCn3ccc4ccccc43)c(=O)[nH]c2c1"
Marked response: 1.26 µg/mL

Exam item: Provide only the value of recorded IC90 for "N=C1SCC(=O)N1c1ncc(Cc2cccc(Cl)c2)s1"
Marked response: 2.11 µg/mL

* * *

- Tested on: M. tuberculosis H37Rv growth inhibition
- experimental_protocol: Mycobacterium tuberculosis H37Rv growth inhibition, putative kinase inhibitor library, confirmatory dose response (AID 2842);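 note: bacteria incubated one week before Alamar blue readout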
reported_endpoint: IC90

Known results for compounds:
Cc1nnc(SCC(=O)Nc2ccc3c(c2)OCCO3)n(N)c1=O : 23.1 µg/mL
CCOC(=O)c1c(NC(=O)c2ccccc2Br)sc2c1CC(C)(C)NC2(C)C : 8.85 µg/mL
CC(C)CCNC(=O)c1c(O)nc2sccn2c1=O : 13.1 µg/mL
CCN1CCc2c(sc(NC(=O)c3ccccc3)c2-c2nc3ccccc3s2)C1 : 0.73 µg/mL

Exam item: Look up M. tuberculosis H37Rv growth inhibition data: IC90 of "CCOC(=O)c1sc(Nc2nc3ccc(OC)cc3s2)cc1C" , then report it.
Marked response: 83.8 µg/mL

Exam item: Look up M. tuberculosis H37Rv growth inhibition data: IC90 of "O=C(COc1ccccc1)Nc1nnc(-c2cc(Cl)ccc2Cl)o1" , then report it.
Marked response: 27.8 µg/mL

Exam item: Look up M. tuberculosis H37Rv growth inhibition data: IC90 of "CSc1nc2cc(NC(=S)NC(=O)c3ccccc3)ccc2s1" , then report it.
Marked response: 6.89 µg/mL

Exam item: Look up M. tuberculosis H37Rv growth inhibition data: IC90 of "COc1ccc(C(=O)Nc2nnc(-c3ccc(C)cc3C)o2)cc1" , then report it.
Marked response: 23.6 µg/mL

Exam item: Look up M. tuberculosis H37Rv growth inhibition data: IC90 of "O=C(Nc1nnc(-c2ccc(Br)cc2)o1)c1ccccc1F" , then report it.
Marked response: 4.4 µg/mL

Exam item: Look up M. tuberculosis H37Rv growth inhibition data: IC90 of "Cc1ccc(-c2nnc(NC(=O)c3ccccc3Br)o2)c(C)c1" , then report it.
Marked response: 0.27 µg/mL

Exam item: Look up M. tuberculosis H37Rv growth inhibition data: IC90 of "O=C(Nc1ccc(S(=O)(=O)N2CCC(c3nc4ccccc4[nH]3)CC2)cc1)c1cccc(Cl)c1" , then report it.
Marked response: 0.86 µg/mL

* * *

Known IC90 of a selection of molecules
- Test system: M. tuberculosis H37Rv growth inhibition
- experimental_protocol: Mycobacterium tuberculosis H37Rv growth inhibition, putative kinase inhibitor library, confirmatory dose response (AID 2842);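 note: bacteria incubated one week before Alamar blue readout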

Known results for molecules:
Cc1ccc(C(=O)Nc2nnc(-c3ccc(C)cc3C)o2)c(C)c1 : 3.99 µg/mL
COc1ccc(-c2nc(N3CCC(C)CC3)nc3n[nH]c(N)c23)cc1 : 2.14 µg/mL
COC(=O)C(C)Oc1ccc2cc(-c3ccc(OC)c(OC)c3)c(=O)oc2c1 (stereo not given) : 6.7 µg/mL
O=C(Cc1ccc(-c2ccccc2)cc1)Nc1nnc2n1CCS2 : 13.5 µg/mL
O=C(/C=C/c1ccccc1)Nc1nnc(-c2ccc3c(c2)CCCC3)o1 : 1.67 µg/mL

Exam item: Provide only the value of recorded IC90 for "O=C(Nc1nc2c(s1)COc1ccccc1-2)c1cccc(NS(=O)(=O)c2ccc(F)cc2)c1"
Marked response: 13.4 µg/mL

Exam item: Provide only the value of recorded IC90 for "Cc1ccc2nc(NNC(=O)c3cccc(F)c3)sc2c1"
Marked response: 7.65 µg/mL

Exam item: Provide only the value of recorded IC90 for "CN(C)S(=O)(=O)c1ccc(C(=O)Nc2nnc(-c3ccc(Br)cc3)o2)cc1"
Marked response: 6.69 µg/mL

Exam item: Provide only the value of recorded IC90 for "COC(=O)c1ccc(NC(=O)CSc2nc(-c3ccc(C)cc3)ns2)cc1"
Marked response: 21.3 µg/mL

Exam item: Provide only the value of recorded IC90 for "O=C1NC(=S)NC(=O)C1=Cc1nc(-c2ccccc2Cl)n2ccccc12"
Marked response: 10.8 µg/mL

* * *

- System: M. tuberculosis H37Rv growth inhibition
- experimental_protocol: Mycobacterium tuberculosis H37Rv growth inhibition, putative kinase inhibitor library, confirmatory dose response (AID 2842);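 note: bacteria incubated one week before Alamar blue readout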
Known IC90 of a selection of molecules

Known results for molecules:
COc1cccc2sc(N(CCCn3ccnc3)C(=O)c3ccc4c(c3)OCCO4)nc12 : 6.56 µg/mL
COc1ccccc1C(=O)Nc1nnc(-c2ccccc2Cl)o1 : 3.23 µg/mL
COc1cccc(-c2nnc(NC(=O)c3cccc(F)c3)o2)c1 : < 0.2 µg/mL
CC(C)(C)c1ccc(C(=O)Nc2nnc(-c3ccncc3)o2)cc1 : 1.18 µg/mL

Exam item: Provide only the value of recorded IC90 for "O=C(Nc1nnc(-c2cccs2)o1)c1cc(-c2ccccc2)nc2ccccc12"
Marked response: 0.53 µg/mL

Exam item: Provide only the value of recorded IC90 for Cc1ccc2c(c1)C(c1ccccc1)N(C(=O)c1ccc(-c3ccccc3)cc1)CC(=O)N2 (configuration not stated)
Marked response: 5.05 µg/mL

Exam item: Provide only the value of recorded IC90 for "O=C(CSCc1ccc(Cl)c(Cl)c1)Nc1ccc(F)cc1"
Marked response: 12.9 µg/mL

Exam item: Provide only the value of recorded IC90 for "COc1cccc2sc(Nc3nc4c(s3)CCCC4)nc12"
Marked response: 5.82 µg/mL

* * *

- Tested on: M. tuberculosis H37Rv growth inhibition
- experimental_protocol: Mycobacterium tuberculosis H37Rv growth inhibition, putative kinase inhibitor library, confirmatory dose response (AID 2842);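 note: bacteria incubated one week before Alamar blue readout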
reported_endpoint: IC90

Known results for compounds:
CCCC(=O)Nc1nnc(-c2ccc(C)cc2C)o1 : 2.25 µg/mL
N#C/C(=C\c1ccc([N+](=O)[O-])cc1)c1nc2ccccc2[nH]1 : 6.12 µg/mL
Cc1cccc(C(=O)Nc2nnc(-c3ccc(C)cc3C)o2)c1 : 9.06 µg/mL

Exam item: Look up M. tuberculosis H37Rv growth inhibition data: IC90 of "Cc1ccc(C)c(-c2nnc(NC(=O)c3ccccc3)o2)c1" , then report it.
Marked response: 24.5 µg/mL

Exam item: Look up M. tuberculosis H37Rv growth inhibition data: IC90 of "O=C(CCN1C(=O)c2ccccc2S1(=O)=O)Nc1ccc(Br)cc1" , then report it.
Marked response: 17.5 µg/mL

Exam item: Look up M. tuberculosis H37Rv growth inhibition data: IC90 of "Cc1ccc(C)c(-c2nnc(NC(=O)c3cc([N+](=O)[O-])ccc3Cl)o2)c1" , then report it.
Marked response: < 0.2 µg/mL

Exam item: Look up M. tuberculosis H37Rv growth inhibition data: IC90 of "COc1ccccc1Cn1cc2c(-c3ccc(Cl)cc3)nnc-2c2ccccc21" , then report it.
Marked response: 8.89 µg/mL

Exam item: Look up M. tuberculosis H37Rv growth inhibition data: IC90 of "CCc1ccc2nc(Nc3nc4ccc(S(C)(=O)=O)cc4s3)sc2c1" , then report it.
Marked response: 7.52 µg/mL

Exam item: Look up M. tuberculosis H37Rv growth inhibition data: IC90 of CCOc1ccc(C(=O)N2CC(=O)Nc3ccc(Br)cc3C2c2ccccc2)cc1 (configuration not stated) , then report it.
Marked response: 25.3 µg/mL

Exam item: Look up M. tuberculosis H37Rv growth inhibition data: IC90 of "Cc1cc(Cl)cc2sc(N(CCCn3ccnc3)C(=O)c3ccco3)nc12" , then report it.
Marked response: < 0.2 µg/mL

Exam item: Look up M. tuberculosis H37Rv growth inhibition data: IC90 of "O=C(Nc1nnc(-c2cccnc2)o1)c1cc(Cl)ccc1Cl" , then report it.
Marked response: 27.9 µg/mL

Exam item: Look up M. tuberculosis H37Rv growth inhibition data: IC90 of "O=C(Nc1nnc(-c2cc(Cl)ccc2Cl)o1)c1cc(Cl)ccc1Cl" , then report it.
Marked response: 0.49 µg/mL

Exam item: Look up M. tuberculosis H37Rv growth inhibition data: IC90 of "Cc1cc(Nc2ccc(C)c(C)c2)n2ncc(-c3ccccc3)c2n1" , then report it.
Marked response: 3.44 µg/mL

Exam item: Look up M. tuberculosis H37Rv growth inhibition data: IC90 of "CCCCC(=O)Nc1nnc(-c2ccc3c(c2)CCCC3)o1" , then report it.
Marked response: 3.04 µg/mL

Exam item: Look up M. tuberculosis H37Rv growth inhibition data: IC90 of "COc1ccc(-c2nnc(NC(=O)C3CC3)o2)cc1" , then report it.
Marked response: 1.06 µg/mL

Exam item: Look up M. tuberculosis H37Rv growth inhibition data: IC90 of "CSc1ccc2nc(Nc3nc4ccc(NC(C)=O)cc4s3)sc2c1" , then report it.
Marked response: < 0.2 µg/mL

Exam item: Look up M. tuberculosis H37Rv growth inhibition data: IC90 of "CC(C)(C)c1ccc(-n2c(=O)[nH]c3c(C(N)=O)nc(CCc4ccccc4)nc32)cc1" , then report it.
Marked response: 2.36 µg/mL

Exam item: Look up M. tuberculosis H37Rv growth inhibition data: IC90 of "O=C(Nc1nnc(-c2ccc3c(c2)OCCO3)o1)c1ccccc1Oc1ccccc1" , then report it.
Marked response: 3.77 µg/mL

Exam item: Look up M. tuberculosis H37Rv growth inhibition data: IC90 of "Cc1ccc(C(=O)Nc2cccc(-c3ccc4nnc(C)n4n3)c2)cc1C" , then report it.
Marked response: 12.9 µg/mL

Exam item: Look up M. tuberculosis H37Rv growth inhibition data: IC90 of "O=C(Nc1nnc(-c2ccc3c(c2)OCCO3)o1)c1ccccc1Br" , then report it.
Marked response: 12.6 µg/mL

Exam item: Look up M. tuberculosis H37Rv growth inhibition data: IC90 of "CCOc1ccc2nc(N(CCCn3ccnc3)C(=O)Cc3ccc(F)cc3)sc2c1" , then report it.
Marked response: 3.05 µg/mL

Exam item: Look up M. tuberculosis H37Rv growth inhibition data: IC90 of "Cc1cc(Cl)ccc1N/C=C(\C#N)c1nc2ccccc2[nH]1" , then report it.
Marked response: 23.9 µg/mL
